Test system: Escherichia coli
Assay: Antibacterial activity against Escherichia coli ATCC 25922 assessed as bacterial growth inhibition incubated for 20 hrs by broth microdilution method
Assay type: functional
Positions of bridges follow the written chain, without caps; N, C: chain ends. Non-standard residues stand in square brackets, D forms with d. Residues, ends and D or L forms follow the SMILES beside them. *: point of attachment. dPhe(4-CF3) = N[C@H](Cc1ccc(C(F)(F)F)cc1)C(=O)O; Phe(3-F) = N[C@@H](Cc1cccc(F)c1)C(=O)O; d(hhPhe) = N[C@H](CCCc1ccccc1)C(=O)O; d(hPhe) = N[C@H](CCc1ccccc1)C(=O)O; Octanoyl = CCCCCCCC(=O)*; Dab = NCC[C@H](N)C(=O)O
Would you kindly list MIC for each of these compounds?
Numeric answer only, unit µg/mL assumed.

[Q] State the recorded MIC for this entry: CCCCCCCC(=O)N[C@@H](CCN)C(=O)N[C@H](C(=O)N[C@@H](CCN)C(=O)N[C@H]1CCNC(=O)[C@H]([C@@H](C)O)NC(=O)[C@H](CCN)NC(=O)[C@H](CCN)NC(=O)[C@H](Cc2ccccc2)NC(=O)[C@@H](CCCc2ccccc2)NC(=O)[C@H](CCN)NC1=O)[C@@H](C)O (Octanoyl-[Dab]T[Dab][Dab][Dab][d(hhPhe)]F[Dab][Dab]T; lactam 4-C)
[A] 0.25

[Q] Entry CCCCCCCC(=O)N[C@@H](CCN)C(=O)N[C@H](C(=O)N[C@@H](CCN)C(=O)N[C@H]1CCNC(=O)[C@H]([C@@H](C)O)NC(=O)[C@H](CCN)NC(=O)[C@H](CCN)NC(=O)[C@H](Cc2ccccc2)NC(=O)[C@@H](CCc2ccccc2)NC(=O)[C@H](CCN)NC1=O)[C@@H](C)O (Octanoyl-[Dab]T[Dab][Dab][Dab][d(hPhe)]F[Dab][Dab]T; lactam 4-C) has what MIC?
[A] 0.5

[Q] May I ask what MIC has been recorded for CC(=O)N[C@H](Cc1cccc(F)c1)C(=O)N[C@@H](CCN)C(=O)N[C@H](C(=O)N[C@@H](CCN)C(=O)N[C@H]1CCNC(=O)[C@H]([C@@H](C)O)NC(=O)[C@H](CCN)NC(=O)[C@H](CCN)NC(=O)[C@H](CC(C)C)NC(=O)[C@@H](Cc2ccccc2)NC(=O)[C@@H](CCN)NC1=O)[C@H](C)O ?
[A] 0.25

[Q] Quick check: MIC of CCCCCCCC(=O)N[C@@H](CCN)C(=O)N[C@H](C(=O)N[C@@H](CCN)C(=O)N[C@H]1CCNC(=O)[C@H]([C@@H](C)O)NC(=O)[C@H](CCN)NC(=O)[C@H](CCN)NC(=O)[C@H](Cc2cccc(F)c2)NC(=O)[C@@H](CC(C)C)NC(=O)[C@H](CCN)NC1=O)[C@@H](C)O (Octanoyl-[Dab]T[Dab][Dab][Dab][dL][Phe(3-F)][Dab][Dab]T; lactam 4-C) ?
[A] 0.25

[Q] Recorded MIC for CCCCCCCC(=O)N[C@@H](CCN)C(=O)N[C@H](C(=O)N[C@@H](CCN)C(=O)N[C@H]1CCNC(=O)[C@H]([C@@H](C)O)NC(=O)[C@H](CCN)NC(=O)[C@H](CCN)NC(=O)[C@H](CC(C)C)NC(=O)[C@@H](Cc2ccc(C(F)(F)F)cc2)NC(=O)[C@H](CCN)NC1=O)[C@@H](C)O (Octanoyl-[Dab]T[Dab][Dab][Dab][dPhe(4-CF3)]L[Dab][Dab]T; lactam 4-C) , please?
[A] 0.25
